Catalogue of switch fluorescence ratio values
test system: ATP; test: switch fluorescence ratio, 500 uM ATP over buffer (Cy3 cluster intensity, sum of 5 cycles each) (fold (ratio)); higher = stronger signal-on switching upon ATP binding; sequences stand for … in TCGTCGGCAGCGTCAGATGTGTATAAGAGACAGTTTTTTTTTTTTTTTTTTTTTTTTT…TC; details: aptamer strand: ATP DNA aptamer (quencher-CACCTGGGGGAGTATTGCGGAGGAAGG + anchor), 100 nM annealed; ATP concentration: 500 uM;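 note: ATP exposure 15 min at 22 °C before imaging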
Hey, just send me the number, nothing else.

Ask: So what does the record say about switch fluorescence ratio for TGCGAAAATT ?
Result: 1.01

Ask: What would you report for ATTTTCCAGT ?
Result: 1.01

Ask: What would you report for GGGTTTGCGA ?
Result: 1.02

Ask: What would you report for AGACGGGGGT ?
Result: 0.997

Ask: What would you report for ATTGGAAAAG ?
Result: 0.985

Ask: What would you report for GATAGGTGCC ?
Result: 1

Ask: What would you report for ATAGCTGATT ?
Result: 0.983

Ask: What would you report for GATTTTCAGA ?
Result: 0.998

Ask: What would you report for TGGTATCGGA ?
Result: 0.977

Ask: What would you report for GCTGTGCACG ?
Result: 1.02

Ask: What would you report for TAGGGTTTGG ?
Result: 0.992

Ask: What would you report for GTTTATTGGC ?
Result: 0.995

Ask: What would you report for AGGCTACGTC ?
Result: 0.992

Ask: What would you report for GGTGAGAAAT ?
Result: 1.01

Ask: What would you report for GGATGAGGCA ?
Result: 1.02

Ask: What would you report for GCTGTTGCTG ?
Result: 1

Ask: What would you report for GATGGTTAAC ?
Result: 1.01

Ask: What would you report for CAGGATGCAT ?
Result: 1.01

Ask: What would you report for GGTGTTGGG ?
Result: 1.01

====

test system: ATP; assay: switch fluorescence ratio, 500 uM ATP over buffer (Cy3 cluster intensity, sum of 5 cycles each) (fold (ratio)); higher = stronger signal-on switching upon ATP binding; sequences stand for … in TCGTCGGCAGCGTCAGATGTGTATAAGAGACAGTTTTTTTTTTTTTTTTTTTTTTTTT…TC; conditions: aptamer strand: ATP DNA aptamer (quencher-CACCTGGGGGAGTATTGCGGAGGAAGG + anchor), 100 nM annealed; ATP concentration: 500 uM;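 note: ATP exposure 15 min at 22 °C before imaging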
Catalogue of switch fluorescence ratio values
Hey, just send me the number, nothing else.

Answered examples (4):
residue_codes=TTTATTGGT result_type="switch fluorescence ratio" measured_value=1.01
residue_codes=AAGTGGGTGT result_type="switch fluorescence ratio" measured_value=0.99
residue_codes=ACTCATATCG result_type="switch fluorescence ratio" measured_value=0.987
residue_codes=AGGGATACTG result_type="switch fluorescence ratio" measured_value=1.07

Ask: So what does the record say about switch fluorescence ratio for GCAGTAAGTT ?
Result: 0.978

Ask: What would you report for ACCCGGCTTA ?
Result: 1.19

Ask: What would you report for AAAAGTGTTA ?
Result: 0.977

====

test system: ATP; test: switch fluorescence ratio, 500 uM ATP over buffer (Cy3 cluster intensity, sum of 5 cycles each) (fold (ratio)); higher = stronger signal-on switching upon ATP binding; sequences stand for … in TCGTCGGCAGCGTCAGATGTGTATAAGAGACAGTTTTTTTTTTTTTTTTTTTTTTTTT…TC; conditions: aptamer strand: ATP DNA aptamer (quencher-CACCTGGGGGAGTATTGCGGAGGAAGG + anchor), 100 nM annealed; ATP concentration: 500 uM;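 note: ATP exposure 15 min at 22 °C before imaging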
RESULT TYPE: switch fluorescence ratio
Hey, just send me the number, nothing else.

residue_codes=GCCATGACGG target_of_assay=ATP measured_value=0.988
residue_codes=GAATTAAACG target_of_assay=ATP measured_value=1.02
residue_codes=TTCTAAGGTC target_of_assay=ATP measured_value=0.978
residue_codes=TGTCGACTTG target_of_assay=ATP measured_value=0.972
residue_codes=ACAAAAAGGG target_of_assay=ATP measured_value=1.02
residue_codes=TTTTGATTAT target_of_assay=ATP measured_value=0.978
residue_codes=CAATGAGGG target_of_assay=ATP measured_value=0.997
residue_codes=TGTTTGAATG target_of_assay=ATP measured_value=0.959
residue_codes=ATTTTTGATT target_of_assay=ATP measured_value=0.984
residue_codes=TGCGGTTTAG target_of_assay=ATP measured_value=1.04

Ask: So what does the record say about switch fluorescence ratio for CTATTTTAAG ?
Result: 1.02

Ask: What would you report for TTGGGGTTTC ?
Result: 0.998

Ask: What would you report for GGATTACGGT ?
Result: 1.01

Ask: What would you report for CCAGTAGTTT ?
Result: 1

Ask: What would you report for AAAAGCACGA ?
Result: 1.09

Ask: What would you report for CTTAGGATAG ?
Result: 0.996

Ask: What would you report for GAACGTTTGG ?
Result: 1.04

Ask: What would you report for CATAGTTGCG ?
Result: 1.02

Ask: What would you report for CCAAGGTTCG ?
Result: 0.945

Ask: What would you report for GCAGGTGGGG ?
Result: 1.1

Ask: What would you report for CCCAAACCTG ?
Result: 1.13

Ask: What would you report for AGTTATTTGC ?
Result: 0.997

====

system: ATP; test: switch fluorescence ratio, 500 uM ATP over buffer (Cy3 cluster intensity, sum of 5 cycles each) (fold (ratio)); higher = stronger signal-on switching upon ATP binding; sequences stand for … in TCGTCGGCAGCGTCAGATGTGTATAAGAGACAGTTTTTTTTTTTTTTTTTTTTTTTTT…TC; conditions: aptamer strand: ATP DNA aptamer (quencher-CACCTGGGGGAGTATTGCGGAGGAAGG + anchor), 100 nM annealed; ATP concentration: 500 uM;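 note: ATP exposure 15 min at 22 °C before imaging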
RESULT TYPE: switch fluorescence ratio
Hey, just send me the number, nothing else.

Answered examples (5):
residue_codes=CGGGCGGACA measured_value=0.974
residue_codes=GGGTGGCTCG measured_value=0.997
residue_codes=GGTGTGGGGG measured_value=1.01
residue_codes=CTAGTTGGTA measured_value=0.994
residue_codes=AGGGCAAGTG measured_value=0.996

Ask: So what does the record say about switch fluorescence ratio for AAGATTCTCG ?
Result: 1

Ask: What would you report for AGTCGAAATG ?
Result: 0.989

Ask: What would you report for ATCAAGCCAA ?
Result: 1

Ask: What would you report for TTTCGTATGG ?
Result: 1

====

Catalogue of switch fluorescence ratio values
system: ATP; assay: switch fluorescence ratio, 500 uM ATP over buffer (Cy3 cluster intensity, sum of 5 cycles each) (fold (ratio)); higher = stronger signal-on switching upon ATP binding; sequences stand for … in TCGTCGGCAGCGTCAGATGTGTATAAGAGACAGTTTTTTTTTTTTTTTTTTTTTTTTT…TC; conditions: aptamer strand: ATP DNA aptamer (quencher-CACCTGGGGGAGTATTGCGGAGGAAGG + anchor), 100 nM annealed; ATP concentration: 500 uM;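 note: ATP exposure 15 min at 22 °C before imaging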
Hey, just send me the number, nothing else.

Answered examples (2):
residue_codes=ACCGTGATGT measured_value=1.08
residue_codes=GGTCGGGCTT measured_value=1.01

Next, consider the following sequence.
Ask: So what does the record say about switch fluorescence ratio for AGATGGGGCA ?
Result: 0.977

====

Catalogue of switch fluorescence ratio values
system: ATP; test: switch fluorescence ratio, 500 uM ATP over buffer (Cy3 cluster intensity, sum of 5 cycles each) (fold (ratio)); higher = stronger signal-on switching upon ATP binding; sequences stand for … in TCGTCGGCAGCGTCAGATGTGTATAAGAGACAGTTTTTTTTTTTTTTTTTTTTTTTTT…TC; conditions: aptamer strand: ATP DNA aptamer (quencher-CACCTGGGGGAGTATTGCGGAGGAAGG + anchor), 100 nM annealed; ATP concentration: 500 uM;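 note: ATP exposure 15 min at 22 °C before imaging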
Hey, just send me the number, nothing else.

Answered examples (10):
residue_codes=GATTGCCTGT measured_value=0.981
residue_codes=TTCTGGCAAT measured_value=2.97
residue_codes=ATCTTTTTGT measured_value=1.01
residue_codes=ATGCTTAGTT measured_value=1.03
residue_codes=AGCTAGGTAA measured_value=1.01
residue_codes=CGATCCTATG measured_value=0.969
residue_codes=TAATATTTAA measured_value=1.05
residue_codes=AGGGGGGGTA measured_value=0.997
residue_codes=TCCCACTTCG measured_value=1.03
residue_codes=CAGTGGATAC measured_value=1.22

Ask: Request: switch fluorescence ratio, test system ATP, entry CTCTGAGGTT;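 note: ATP exposure 15 min at 22 °C before imaging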
Result: 1

Ask: What would you report for AGGTTGTGCG ?
Result: 1

Ask: What would you report for TGGGGTCTAG ?
Result: 0.969

Ask: What would you report for ATTAAGGCGC ?
Result: 0.998

Ask: What would you report for TGGGTAGGCG ?
Result: 1.02

Ask: What would you report for TGAAATATTC ?
Result: 0.993

Ask: What would you report for ATGGGGAGCG ?
Result: 0.992

Ask: What would you report for ATTTGGGACA ?
Result: 1.01
